- Assay: Trans-enterocyte transport of CA in Caco-2 cell monolayer
- Type: in vitro ADME, human
- Reported Conditions: human, Caco-2, CA 50 μM, Average of 0.5-3.0 h
Outcome Measure: Papp B→A at 50 μM (×10⁻⁶ cm/s)
Value expressed in ×10⁻⁶ cm/s; do not type the unit.

Provide measured Papp B→A at 50 μM value, entry: `CC(C)c1cc2c(c(O)c1O)[C@@]1(C(=O)O)CCCC(C)(C)[C@@H]1CC2`
0.33

====

- Assay: Effect of verapamil, PEG 400 and EDTA on trans-enterocyte transport of CA
- Assay type: in vitro ADME, human
- Reported Conditions: human, Caco-2, CA 50 μM, 2.0 h, + 5% PEG 400; read-out: Papp AP to BL
Outcome Measure: Papp A→B at 2 h, 50 μM

Provide measured Papp A→B at 2 h, 50 μM value, entry: `CC(C)c1cc2c(c(O)c1O)[C@@]1(C(=O)O)CCCC(C)(C)[C@@H]1CC2`
18.6 nm/s

====

- Assay: Effect of verapamil, PEG 400 and EDTA on trans-enterocyte transport of CA
- Format: in vitro ADME, human
- Reported Conditions: human, Caco-2, CA 75 μM, 2.0 h, + 5 mmoL/L EDTA; read-out: Papp AP to BL
Outcome Measure: Papp A→B at 2 h, 75 μM
Kindly write the number and append the unit.

Provide measured Papp A→B at 2 h, 75 μM value, entry: `CC(C)c1cc2c(c(O)c1O)[C@@]1(C(=O)O)CCCC(C)(C)[C@@H]1CC2`
2.08 ×10⁻⁶ cm/s

====

- Assay: Trans-enterocyte transport of CA in Caco-2 cell monolayer
- Type: in vitro ADME, human
- Reported Conditions: human, Caco-2, CA 75 μM, Average of 0.5-3.0 h, CA alone; read-out: Papp AP to BL
Outcome Measure: Papp A→B at 75 μM (×10⁻⁶ cm/s)
Value expressed in ×10⁻⁶ cm/s; do not type the unit.

Provide measured Papp A→B at 75 μM value, entry: `CC(C)c1cc2c(c(O)c1O)[C@@]1(C(=O)O)CCCC(C)(C)[C@@H]1CC2`
1.04

====

- Assay: Trans-enterocyte transport of CA in Caco-2 cell monolayer
- Format: in vitro ADME, human
- Reported Conditions: human, Caco-2, CA 75 μM, 2.0 h
Outcome Measure: Papp B→A at 2 h, 75 μM
Kindly write the number and append the unit.

Provide measured Papp B→A at 2 h, 75 μM value, entry: CC(C)c1cc2c(c(O)c1O)[C@@]1(C(=O)O)CCCC(C)(C)[C@@H]1CC2 [CA, Carnosic acid]
0.62 ×10⁻⁶ cm/s

====

- Assay: Effect of verapamil, PEG 400 and EDTA on trans-enterocyte transport of CA
- Assay type: in vitro ADME, human
- Reported Conditions: human, Caco-2, with verapamil 100 μmol/L, CA 100 μM, 2.0 h, + 100 μmoL/L verapamil; read-out: Papp AP to BL
Outcome Measure: Papp A→B at 2 h, 100 μM (×10⁻⁶ cm/s)
Value expressed in ×10⁻⁶ cm/s; do not type the unit.

Provide measured Papp A→B at 2 h, 100 μM value, entry: `CC(C)c1cc2c(c(O)c1O)[C@@]1(C(=O)O)CCCC(C)(C)[C@@H]1CC2`
1.24

====

- Assay: Trans-enterocyte transport of CA in Caco-2 cell monolayer
- Format: in vitro ADME, human
- Reported Conditions: human, Caco-2, CA 50 μM, 0.5 h, CA alone; read-out: Papp AP to BL
Outcome Measure: Papp A→B at 0.5 h, 50 μM (×10⁻⁶ cm/s)
Value expressed in ×10⁻⁶ cm/s; do not type the unit.

Provide measured Papp A→B at 0.5 h, 50 μM value, entry: `CC(C)c1cc2c(c(O)c1O)[C@@]1(C(=O)O)CCCC(C)(C)[C@@H]1CC2`
0.28
